Recorded measurements of TGI, one per entry
Test system: UO-31 renal
experimentalDetails: NCI tumour cell line growth inhibition, 48 h

# compound, TGI
records = [
    ("FC(F)(F)c1ccc2nc(Sc3ccccn3)cnc2c1", "> 100 µM"),
    ("CNc1ccc(N)cc1C(=O)N1CCC[C@H]1CO", "> 100 µM"),
    ("C#CCOCC12C=CC(O1)C1C(=O)OCC12 (stereo unspecified)", "> 100 µM"),
    ("CC(C)c1c2[nH]c3ccccc3c2c(C(C)C)c2[nH]c3ccccc3c12", "> 100 µM"),
    ("C[C@H]1C=C2[C@@H]3CC(C)(C(=O)O)CC[C@]3(C)CC[C@]2(C)[C@]2(C)CC[C@H]3C(C)(C)[C@@H](OC(=O)c4cccc5c(=O)c6ccccc6[nH]c45)CC[C@]3(C)[C@@H]12 (stereo partly specified)", "> 100 µM"),
    ("CC(C)=CCC/C(C)=C/CC/C(C)=C/CC/C=C(\\C)CC/C=C(\\C)CCC(=O)Nc1ccn(C2OC(CO)C(O)C2(F)F)c(=O)n1 (stereo unspecified)", "14.7 µM"),
    ("CCCCn1c(=O)c2c(nc3n2CCCN3CCc2ccc(OCC(=O)NCCN(CC)CC)cc2)n(CCCC)c1=O", "7.86 µM"),
    ("COc1ccc(C(=O)c2[nH]c(Nc3ccc(Cl)cc3)c(C(=S)Nc3ccccc3)c2N)cc1", "> 100 µM"),
    ("CC1(C)CCC[C@]2(C)[C@@H](C=O)C(C=O)=CC[C@@H]12", "29.9 µM"),
    ("CN(C)CCC(/C=C/c1ccccc1)=N\\Nc1ccc(Cl)cc1Cl", "6.5 µM"),
    ("CN(C)c1ccc(/C=C2\\C=Cc3ccccc32)cc1", "> 100 µM"),
    ("Cc1csc2nc(-c3ccc(Cl)c([N+](=O)[O-])c3)c(/C=N/N=C(N)N)n12", "2.33 µM"),
    ("CN(CC(N)=O)C(=O)N(CCCl)N=O", "> 100 µM"),
    ("CC(C)(C)CN1CCn2c(nc3c(N)nccc32)S1", "> 100 µM"),
    ("Cc1nc2ccccc2c(/C=C/c2ccc(Br)cc2)c1C(=O)/C=C/c1ccccc1", "2.44 µM"),
    ("OC(c1ccc(-c2ccccc2)cc1)C(F)(F)c1nc2ccccc2o1 (stereo unspecified)", "> 100 µM"),
    ("O=c1onc2c3ccccc3ncn12", "> 100 µM"),
    ("COc1ccc2c(c1)OC1=C(C(=O)OC1)C2c1cc(OC)c2c(c1)OCO2 (stereo unspecified)", "> 100 µM"),
    ("COc1cc(/C=C/[N+](=O)[O-])cc(Br)c1OC", "3.49 µM"),
    ("O=C1NC(=S)N(c2ccccc2)C1=O", "> 100 µM"),
    ("CCC1(O)C(=O)OCc2c1cc1n(c2=O)Cc2cc3cc(N)ccc3nc2-1 (stereo unspecified)", "0.0864 µM"),
]
